Biological target: Human Ang-1/2 BsmI chimera (human)
Experiment: ELISA
OBSERVED PROPERTY: percent binding compared to human Ang-2 (%)
Response body: numeric value in %, unit text excluded.

[[record]]
binder = "mAb 5.86.1 (antibody, V domains shown) VH: QVQLVQSGAEVKKPGASVKVSCKASGYTFTGYHMYWVRQAPGQGLEWLGWINPNSGGTNYAQKFQGRVTMTRDTSISTAYMELSRLRSDDTAVYYCVRDQGIAAAGPFDYWCQGTLVTVSS VL: DIRMTQSPSSLSASVGDRVTITCRASQRISTYLNWYQQKPGKAPKFLIYAASSLQSGVPSRFSGSGSGTDFTLTISSLQPEDFATYYCQQSYTTPFTFGPGTKVDIKR"
unit_label = "%"
numeric_result = 100

[[record]]
binder = "mAb 5.62.1 (antibody, V domains shown) VH: EVQLVESGGGLVQPGGSLRLSCAASGFTFSSYWMSWVRQAPGKGLEWVANIKQDGSEKYYVDSVKGRFTISRDNAKNSLYLQMNSLRAEDTAVYYCARDPGIAVAGPFDYWGQGTLVTVSS VL: EIVMTQSPATLSVSPGERATLSCRASQSVSSNLAWYQQKPGQAPRLLIYGAFTRATGIPARFSGSGSGTEFTLTISSLQSEDFAVYYCQQYNHWWTFGQGTKVGIKR"
unit_label = "%"
numeric_result = 100

[[record]]
binder = "mAb 3.28.1 (antibody, part only; not given: light chain, V domains shown, part only) VH: EVQLVESGGGLVQPGGSLRLSCAASGFTFSSSWMSWVRQAPGKGLEWVANIKQDGSDKYYVDSVKGRFTISRDNAKNSLYLQMNSLRAEDTAVYYCVRDKGSGWFDYWGQGTLVTVSSA"
unit_label = "%"
numeric_result = 100

[[record]]
binder = "mAb 5.39.1 (antibody, V domains shown) VH: QVQLVQSGAEVTKPGASVKVSCKASGYTFTAYHMYWVRQAPGQGLEWMGWINPNSGGTNYAQKFQGRVTMTRDTSISTAYMELSRLRSDDSPVYYCARDQGIAAAGPFDYWGQGTLVTVSS VL: EIVMTQSPATLSVSPGDRATLSCRASQSVSSNFAWYQQKPGQAPRLLIYGSSTRATGIPARFSGSGSGTEFTLTISSLQSEDFAVYYCQQYHYWWTFGQGTKVEFKR"
unit_label = "%"
numeric_result = 100

[[record]]
binder = "mAb 6.3.1 (antibody, V domains shown) VH: QVQLVQSGAEVKKPGASVKVSCKASGYTFTGYFMHWVPQAPGQGLEWMGWINPNSGGTNYAQNFQGRVTMTRDTSISTAYMELSRLRSDDTPVYYCARDPWQNWNSYFDYWGQGTLVTVSS VL: DIQMTQSPSSLSASVGDRVTITCRASQSIRSYLNWYQQKPGKAPKVLIYAASSLQSGVPSRFSGSGSGTDFTLTISSLQPEDFATYYCQQSYSTLCSFGQGTKLEIKR"
unit_label = "%"
numeric_result = 100

[[record]]
binder = "mAb 5.88.3 (antibody, V domains shown) VH: EVQMVESGGGLVQPGGSLRLSCAASGFTLRSYWMSWVRQAPGKGLEWVANIKEDGSEKYHVDSVKGRFTISRDNAENSLFLQMSSLRAEDTAVYYCARDMEASAGLFDYWGQGTLVTVSS VL: EIVMTQSPATLSVSPGERAILSCRASQSISSNLAWYQQKPGQAPRLLIYGASTRATGIPARFSGSGSGTEFTLTISSLQSEDFAVYYCQQYNYWWTFGQGTKVEIKR"
unit_label = "%"
numeric_result = 100

[[record]]
binder = "mAb 5.2.1 (antibody, part only; not given: light chain, V domains shown, part only) VH: QVQLVESGGGVVQPGRSLRLSCAASGFTFSSYGMHWVRQAPGKGLEWVAVIWFDGFNKYYADSVKGRFTISRDNSKNTLYLQMNSLRAEDTAVYHCARDRGYSGYDHYYGMDVWGQGTTVTVSSA"
unit_label = "%"
numeric_result = 100

[[record]]
binder = "mAb 5.28.1 (antibody, V domains shown) VH: EVQLVESGGIVVQPGGSLRLSCAASGFTFDDYTMHWVRQTPGKGLEWVSLISWDGGSTYYADSVKGRFTISRDNSKNSLYLQMNSLRTEDTALYYCAKDIDIAVAGTGFDHWGQGTLVTVSS VL: EIVMTQSPATLSVSPGERATLSCRASQSVTSNLAWYQQKPGQAPRLLIYGALIRATGIPARFSGSGSGTEFTLTISSLQSEDFAVYYCQQYNNWPFTFGPGTKVDIKR"
unit_label = "%"
numeric_result = 100


Attention now turns to another entry.
// returns reported percent binding compared to human Ang-2 for input mAb 3.3.2 (antibody, V domains shown) VH: EVQLVESGGGLVQPGGSLRLSCAVSGFTFSSYWMSWVRQAPGKGLEWVANIKQDGSEKYYVDSVKGRFTISRDNAKNSLYLQMNSLRAEDTAVYYCARDQGIAVAGPFDYWGQGTLVTVSS VL: EIVMTQSPATLSVSPGERATLSCRASQTVSSDLAWYQQKPGQAPRLLIYGASIRATGIPARFSGSGSGTEFTLTISSLQSEDFAVYSCQQYYNWWTFGQGTKVEIKR
100
